- subject.of.test: carbonic anhydrase (CA) from bovine erythrocytes (Bos taurus)
- Sequence (P00921 2-260): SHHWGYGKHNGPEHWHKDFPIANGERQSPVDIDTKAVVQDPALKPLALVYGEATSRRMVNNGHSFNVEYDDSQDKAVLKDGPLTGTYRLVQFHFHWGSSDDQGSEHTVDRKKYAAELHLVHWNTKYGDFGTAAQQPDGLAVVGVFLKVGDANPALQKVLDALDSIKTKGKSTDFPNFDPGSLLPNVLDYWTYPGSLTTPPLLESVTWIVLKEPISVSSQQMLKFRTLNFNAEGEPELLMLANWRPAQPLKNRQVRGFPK
pIC50: −log10 of the molar value.
observable: pIC50

# input Fill blank: measured pIC50 of the compound O=Cc1c(F)c(F)c(SC[C@H](NC(=O)OCc2ccccc2)C(=O)O)c(F)c1F is ____.
# output ~6.00
